Test system: VDR homodimer (NR concentration 270 nM)
test-name: PBM binding z-score (relative to random genomic background probes); higher = stronger binding; sequences stand for … in GC…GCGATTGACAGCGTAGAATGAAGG
measured-property: PBM binding z-score
// return just the number, without any unit appended

Name the recorded PBM binding z-score for CCTACTGGGCCAAAGGTCATTGACTCCAATGCTC .
1.82

Name the recorded PBM binding z-score for CAAACTAGGTCAAGGTCAAAGTAGGTTTGTGCCA .
4.8

Name the recorded PBM binding z-score for CTATGTAGGTTAAGGGGGTCATTTAGTTTGAAAG .
5.81

Name the recorded PBM binding z-score for CTATGCAGGTTAAGGGGGTCATTCAGTTTGAAAG .
5.99

Name the recorded PBM binding z-score for ATATGTAGGTTACCGGGTCATTCAGTTTGCGCAT .
4.17

====

Tested on: THRa homodimer (NR concentration 90 nM)
test-name: PBM binding z-score (relative to random genomic background probes); higher = stronger binding; sequences stand for … in GC…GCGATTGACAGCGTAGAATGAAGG
measured-property: PBM binding z-score

Name the recorded PBM binding z-score for CGATCTAGGTCAAAGGACAGTGAAAGGCGACGTA .
0.472

====

System: PPARg DBDmut:RXRa IVT, anti-PPARg (DBD mutation: PPARg1 K132A/R137A, NR concentration 270 nM, RXRa partner concentration 90 nM)
test-name: PBM binding z-score (relative to random genomic background probes); higher = stronger binding; sequences stand for … in GC…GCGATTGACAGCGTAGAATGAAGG
Where PBM binding z-score equals or exceeds 1, the correct label is criterion met; where it does not, the label is criterion not met.

Please check the record CGTCCAAGGTCAAAGGTCAGGGAAGAGATGACGG and state if its PBM binding z-score is at or above 1.
criterion met

====

Tested on: RARb:RXRa (NR concentration 270 nM, RXRa partner concentration 90 nM)
test-name: PBM binding z-score (relative to random genomic background probes); higher = stronger binding; sequences stand for … in GC…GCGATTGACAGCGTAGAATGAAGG
Where PBM binding z-score equals or exceeds 4, the correct label is Yes; where it does not, the label is No.

Recorded results for 5 sequences are shown here.
input-sequence | group-label
TTAACAAGGTGAAAGGTCGTTGATGCACGCCTTG | No
ATCGAAAGGTCGACGAGGAGAGTATACACCGTTT | No
AAATGTAGGTTAAGGGTCATTCAGGTTGGTTCGC | No
CTATGTAGGTTAAGGGGGTAATTCAGTTTGAAAG | No
CGAACTAGGTCACCAGGATAGTGAAGAGGTTGGA | Yes

Please check the record TTACCAAGGTGAAAGGTCATTGATGCACGCCTTG and state if its PBM binding z-score is at or above 4.
Yes

Please check the record TCGAGTAGGTTACGGGGGTATTCAGGGATGAAGA and state if its PBM binding z-score is at or above 4.
No

Please check the record TCTAGTTGGTCAAAGGCCACACACTCGAAATGCG and state if its PBM binding z-score is at or above 4.
No

====

Measured PBM binding z-score of individual entries
Tested on: PPARg:RXRa 270nM:90nM, anti-RXR (NR concentration 270 nM, RXRa partner concentration 90 nM)
test-name: PBM binding z-score (relative to random genomic background probes); higher = stronger binding; sequences stand for … in GC…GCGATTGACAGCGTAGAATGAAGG
// return just the number, without any unit appended

In the examples that follow, each entry is paired with its recorded PBM binding z-score.
input-sequence | readout-value
CCTCGGAGGACAACAGGATGTCAGAGCTGCCAGA | -1.12
ACTAGAAGGCCAAGGGTCACTCAAGATTAGTCCG | 7.08
CGAACTAGGTCACCTGGACAGTGAAGAGGTTGGA | 6.5

Name the recorded PBM binding z-score for CCTACTGGGCCAAAACGGTCATTGATGCCGATAA .
0.904

Name the recorded PBM binding z-score for ATATTTAGGTTAGGGTCATTCAGAAAGTAGGGAA .
5.63

Name the recorded PBM binding z-score for ACTCGGAGGACAAAGGTAAGAGCTACGCCAGTGA .
3.87

Name the recorded PBM binding z-score for GCTAGTTTGTCAGTAAAAGGTCACACACCGGTCG .
5.47

Where these numbers come from: the supplement of paper PMC6555819
